# MIC90 listing for each entry below
System: Aspergillus sp.
Experiment: Antifungal MIC 50 / MIC 90 alone and combined with Tricide
Assay type: cell-based
Details: Aspergillus; Aspergiullus sp.; antifungal alone
MEASUREMENT_NAME: MIC90

{"MOLECULE": "Clc1ccc(COC(Cn2ccnc2)c2ccc(Cl)cc2Cl)c(Cl)c1 (stereo not shown)", "MEASUREMENT_NAME": "MIC90", "MEASURED_RESULT": "12.4 µg/mL"}
{"MOLECULE": "C[C@@H]1C/C=C/C=C/C=C/C=C/[C@H](O[C@@H]2O[C@H](C)[C@@H](O)[C@H](N)[C@@H]2O)C[C@@H]2O[C@](O)(C[C@@H](O)C[C@H]3O[C@@H]3/C=C/C(=O)O1)C[C@H](O)[C@H]2C(=O)O", "MEASUREMENT_NAME": "MIC90", "MEASURED_RESULT": "19.2 µg/mL"}
{"MOLECULE": "CC(=O)N1CCN(c2ccc(OCC3COC(Cn4ccnc4)(c4ccc(Cl)cc4Cl)O3)cc2)CC1 (stereo not shown)", "MEASUREMENT_NAME": "MIC90", "MEASURED_RESULT": "12 µg/mL"}
{"MOLECULE": "CCC(C)n1ncn(-c2ccc(N3CCN(c4ccc(OCC5COC(Cn6cncn6)(c6ccc(Cl)cc6Cl)O5)cc4)CC3)cc2)c1=O (stereo not shown)", "MEASUREMENT_NAME": "MIC90", "MEASURED_RESULT": "2.43 µg/mL"}

---

# MIC 90 combined with Tricide listing for each entry below
Test system: Aspergillus sp.
Assay: Antifungal MIC 50 / MIC 90 alone and combined with Tricide
Type: cell-based
Settings: Aspergillus sp.; Tricide 200 ug/ml

{"COMPOUND": "C[C@@H]1C/C=C/C=C/C=C/C=C/[C@H](O[C@@H]2O[C@H](C)[C@@H](O)[C@H](N)[C@@H]2O)C[C@@H]2O[C@](O)(C[C@@H](O)C[C@H]3O[C@@H]3/C=C/C(=O)O1)C[C@H](O)[C@H]2C(=O)O", "SYSTEM": "Aspergillus sp.", "UNIT_STRING": "µg/mL", "RELATION_SIGN": ">", "MIC 90 combined with Tricide": 19.2}
{"COMPOUND": "CCC(C)n1ncn(-c2ccc(N3CCN(c4ccc(OCC5COC(Cn6cncn6)(c6ccc(Cl)cc6Cl)O5)cc4)CC3)cc2)c1=O (stereo not shown)", "SYSTEM": "Aspergillus sp.", "UNIT_STRING": "µg/mL", "RELATION_SIGN": "=", "MIC 90 combined with Tricide": 0.25}
{"COMPOUND": "CC(=O)N1CCN(c2ccc(OCC3COC(Cn4ccnc4)(c4ccc(Cl)cc4Cl)O3)cc2)CC1 (stereo not shown)", "SYSTEM": "Aspergillus sp.", "UNIT_STRING": "µg/mL", "RELATION_SIGN": "=", "MIC 90 combined with Tricide": 0.5}
{"COMPOUND": "Clc1ccc(COC(Cn2ccnc2)c2ccc(Cl)cc2Cl)c(Cl)c1 (stereo not shown)", "SYSTEM": "Aspergillus sp.", "UNIT_STRING": "µg/mL", "RELATION_SIGN": "=", "MIC 90 combined with Tricide": 2}

---

System: Fusarium sp. 2
Assay: microbe, parasite or virus in culture
Assay type: cell-based
MEASUREMENT_NAME: Summary % reduction in MIC 50 using Tricide

{"COMPOUND": "CC(=O)N1CCN(c2ccc(OCC3COC(Cn4ccnc4)(c4ccc(Cl)cc4Cl)O3)cc2)CC1 (stereo not shown)", "MEASURED_RESULT": ">99.5%-100%"}
{"COMPOUND": "CCC(C)n1ncn(-c2ccc(N3CCN(c4ccc(OCC5COC(Cn6cncn6)(c6ccc(Cl)cc6Cl)O5)cc4)CC3)cc2)c1=O (stereo not shown)", "MEASURED_RESULT": ">99.9%-100%"}
{"COMPOUND": "Clc1ccc(COC(Cn2ccnc2)c2ccc(Cl)cc2Cl)c(Cl)c1 (stereo not shown)", "MEASURED_RESULT": ">99.9%-100%"}
{"COMPOUND": "C[C@@H]1C/C=C/C=C/C=C/C=C/[C@H](O[C@@H]2O[C@H](C)[C@@H](O)[C@H](N)[C@@H]2O)C[C@@H]2O[C@](O)(C[C@@H](O)C[C@H]3O[C@@H]3/C=C/C(=O)O1)C[C@H](O)[C@H]2C(=O)O", "MEASURED_RESULT": "100%"}
